This section presents binders with their documented pIC50 values.
Target: T1, full-length beta-Catenin (Uniprot ID P35222) (Homo sapiens (Human), UniProt P35222 1-781)
T1 construct: also called bCat; B-Catenin
T1 sequence: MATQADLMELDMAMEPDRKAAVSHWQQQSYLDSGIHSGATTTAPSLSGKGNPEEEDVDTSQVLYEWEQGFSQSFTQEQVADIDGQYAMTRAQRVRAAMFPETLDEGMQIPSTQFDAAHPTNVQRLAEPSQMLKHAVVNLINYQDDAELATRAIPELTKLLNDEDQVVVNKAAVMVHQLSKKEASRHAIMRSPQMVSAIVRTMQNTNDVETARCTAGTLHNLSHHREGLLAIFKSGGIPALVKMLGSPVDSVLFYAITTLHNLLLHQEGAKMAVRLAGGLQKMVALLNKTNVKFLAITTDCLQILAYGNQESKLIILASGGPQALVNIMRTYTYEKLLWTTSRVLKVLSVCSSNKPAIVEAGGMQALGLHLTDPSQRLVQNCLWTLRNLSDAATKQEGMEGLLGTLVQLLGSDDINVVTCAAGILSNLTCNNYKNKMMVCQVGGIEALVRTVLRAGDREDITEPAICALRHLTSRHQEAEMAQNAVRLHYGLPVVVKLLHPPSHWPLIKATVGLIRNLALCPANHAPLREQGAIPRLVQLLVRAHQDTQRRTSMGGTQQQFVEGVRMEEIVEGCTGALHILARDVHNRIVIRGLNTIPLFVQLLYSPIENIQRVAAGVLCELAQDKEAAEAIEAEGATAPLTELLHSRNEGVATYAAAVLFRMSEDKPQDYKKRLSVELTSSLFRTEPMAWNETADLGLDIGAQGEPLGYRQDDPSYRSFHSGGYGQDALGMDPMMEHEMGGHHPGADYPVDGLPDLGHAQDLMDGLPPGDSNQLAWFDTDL
Test: fluorescence polarization competition vs 5FAM-TCF4(10-53) on full-length beta-catenin
Starred links: 1 amine or outer side, 2 acyl side, 3 side chain; linkers in the order of their positions; H or OH if unused. Positions of bridges follow the written chain, without caps; N, C: chain ends. Non-standard residues stand in square brackets, D forms with d. Primed or numbered codes have the meaning given here. B5(14) = 2-amino-2-(pent-4-en-1-yl)hept-6-enoic acid (bis-pentenylglycine), C=CCCCC(CCCC=C)(N[*:1])C(=O)[*:2]; αAllylPro = C=CC[C@@]1(C(=O)O)CCCN1; S8 = C=CCCCCCC[C@](C)(N)C(=O)O
Scale: negative log10 of molar concentration, which is what pIC50 denotes.

Example results:
XDQXDDAAFVXFXQ (not fully specified; N-terminal Ac; PL3 at 1; B5 at 4; S8 at 11; BztA at 13; C-terminal NH2; stapled PL3-B5 and B5-S8 (olefin metathesis), Stapled peptide composition; also called Ac-PL3-Asp-Gln-B5-Asp-Asp-Ala-Ala-Phe-Val-S8-Phe-BztA-Gln-NH2) [I-347] : 6.92
XDAXADAAFVXFWQ (not fully specified; N-terminal Ac; PL3 at 1; B5 at 4; S8 at 11; C-terminal NH2; stapled PL3-B5 and B5-S8 (olefin metathesis), Stapled peptide composition; also called Ac-PL3-Asp-Ala-B5-Ala-Asp-Ala-Ala-Phe-Val-S8-Phe-Trp-Gln-NH2) [I-350] : 5.30

Let us examine a further case.
Would you kindly share the measured pIC50 for Ac-[αAllylPro]DA[B5(14)]DDAAHV[S8]FWQ-NH2 (staple 1-4, 4-11; not fully specified (residue 9), Stapled peptide composition; also called Ac-PL3-Asp-Ala-B5-Asp-Asp-Ala-Ala-3meH-Val-S8-Phe-Trp-Gln-NH2) [I-331] ?
5.30
